Source: patent US8017612B2

- study system: HCV polymerase (NS5B) type 1b (Hepatitis C virus genotype 1b, UniProt P26663)
- Construct: a region encoding NS5B (J Virol 1991 March, 65(3), 1105-13, 544 amino acids after deletion of 47 amino acids on the C-terminal); 6xHis (C); made in house; host or cells: Escherichia coli
- method: Assay of enzyme (HCV polymerase) inhibitory activity, type 1b enzyme
- Assay type: biochemical, HCV BK strain (type 1b)
- conditions used: HCV polymerase inhibitory activity IC50, 1b, type 1b enzyme
Measured IC50 accompanies every entry in the list below.
experimental readout: IC50

[[record]]
compound = "CC(=O)N1CCN(S(=O)(=O)c2ccc(OC(F)(F)F)cc2)[C@@H](C(=O)NCc2ccc(OC(F)(F)F)c(F)c2)C1 [Example 1103]"
result_value = "0.1 to 1 µM"

[[record]]
compound = "CCCc1ccc(CNC(=O)[C@H]2CN(c3nc4c(C(=O)OCC)nnc(Cl)c4s3)CCN2S(=O)(=O)c2ccc(CC)cc2)cc1 [Example 880]"
result_value = "< 0.1 µM"

[[record]]
compound = "O=C(NCc1ccc(OC(F)(F)F)cc1)[C@H]1CN(c2cnc3cncnc3n2)CCN1S(=O)(=O)c1ccc(Cl)s1 [Example 792]"
result_value = "< 0.1 µM"

[[record]]
compound = "O=C(O)c1cncc2sc(N3CCN(S(=O)(=O)c4ccc(OC(F)(F)F)cc4)[C@@H](C(=O)NCc4ccc(OC(F)F)c(F)c4)C3)nc12 [Example 1109]"
result_value = "< 0.1 µM"

[[record]]
compound = "O=C(O)c1cncc2ncc(N3CCN(S(=O)(=O)c4ccc(Cl)s4)[C@@H](C(=O)NCc4ccc(OC(F)(F)F)cc4)C3)nc12 [Example 861]"
result_value = "< 0.1 µM"

[[record]]
compound = "O=C(O)c1cnc(N2CCN(S(=O)(=O)c3ccc(C(F)(F)F)cc3)[C@@H](C(=O)NCc3ccc(OC(F)F)c(F)c3)C2)cn1 [Example 1122]"
result_value = "< 0.1 µM"


---

- study system: HCV polymerase (NS5B) type 1a (Hepatitis C virus genotype 1a)
- Construct: made in house; host or cells: Escherichia coli (by the 'similar method' of the 1b enzyme)
- method: Assay of enzyme (HCV polymerase) inhibitory activity, type 1a enzyme
- Format: biochemical, HCV type 1a (cloned from the blood of patients)
- conditions used: HCV polymerase inhibitory activity (IC50), 1a, type 1a enzyme 1.5 μg/ml, 25° C., 60 min
The following compounds are shown together with reported IC50 values.
experimental readout: IC50

[[record]]
compound = "CC(C)c1ccc(CNC(=O)[C@H]2CN(C3=C(c4ccccc4)C(=O)NC3=O)CCN2S(=O)(=O)c2ccc(C(F)(F)F)cc2)cc1 [Example 148]"
experimental_readout = "IC50"
result_value = "> 1000 nM"

[[record]]
compound = "COCC(=O)N1CCN(S(=O)(=O)c2ccc(C(F)(F)F)cc2)[C@@H](C(=O)NCc2ccc(C(C)C)cc2)C1 [Example 279]"
experimental_readout = "IC50"
result_value = "100 to 1000 nM"

[[record]]
compound = "CCCc1ccc(CNC(=O)[C@H]2CN(c3ccc(N)cn3)CCN2S(=O)(=O)c2ccc(OC(F)(F)F)cc2)cc1 [Example 458]"
experimental_readout = "IC50"
result_value = "< 100 nM"

[[record]]
compound = "CC(=O)N1CCN(S(=O)(=O)c2ccc(CO)cc2)C(C(=O)NCc2ccc(C(F)(F)F)cc2)C1 (stereo not shown) [Example 132]"
experimental_readout = "IC50"
result_value = "> 1000 nM"

